# System: HepG2
# protocol.text: relative viability EC50 (midpoint between 100% and the lowest measured viability); higher = less toxic
# measurement.parameters: 72 h
Can you tell me relative viability EC50 for the items I'm about to list?
Give bare numbers, in nM.

Please review the entries below; each comes with its answer.
compound: NC(=O)Nc1cc(-c2cccc(F)c2)sc1C(=O)N[C@H]1CCCNC1 [AZD7762]
measurement.target: HepG2
reported.measurement: 809
--
compound: [O-][n+]1ccccc1[S-].[O-][n+]1ccccc1[S-].[Zn+2] [pyrithione-zinc]
measurement.target: HepG2
reported.measurement: 640
--
compound: Cc1cc(C)c(N(Cc2ccccc2)S(=O)(=O)c2ccc(OCCNC(=O)c3cc4ccccc4o3)cc2)c(C(=O)NO)c1
measurement.target: HepG2
reported.measurement: 2430
--
compound: COc1c(C)c2c(c(O)c1C/C=C(\C)CCC(=O)OCCN1CCOCC1)C(=O)OC2 [mycophenolate-mofetil]
measurement.target: HepG2
reported.measurement: 938
--
compound: CCNC(=O)c1n[nH]c(-c2cc(Cl)c(O)cc2O)c1-c1ccc(OC)cc1
measurement.target: HepG2
reported.measurement: 714
--
compound: COC(=O)C[C@](O)(CCCC(C)(C)O)C(=O)O[C@@H]1C(OC)=C[C@]23CCCN2CCc2cc4c(cc2[C@H]13)OCO4 [homoharringtonine]
measurement.target: HepG2
reported.measurement: 49.7
--
compound: Nc1nnc(Sc2ncc([N+](=O)[O-])s2)s1 [SU3327]
measurement.target: HepG2
reported.measurement: 1590

Continue with the compound presented below.
q: Observed relative viability EC50 on HepG2 for c1ccc(-c2ccc(CNc3nc(-c4ccccn4)nnc3-c3ccccc3)cc2)cc1 [ML228] , please.
a: 484

====

# Tested on: A549-ACE2 infected with SARS-CoV-2
# protocol.text: cell count relative to DMSO; higher = less toxic
# measurement.parameters: 3 µM; 24 h
Can you tell me cell count for the items I'm about to list?
Give bare numbers, in %.

Please review the entries below; each comes with its answer.
item.smiles: Nc1nccc(Oc2ccc(NC(=O)c3c[nH]cc(-c4ccc(F)cc4)c3=O)cc2F)c1Cl
measure.name: cell count
reported.measurement: 102
//
item.smiles: N=C(N)c1cc2ccc(OC(=O)c3cccs3)cc2s1
measure.name: cell count
reported.measurement: 99
//
item.smiles: CNCc1ccc(C)c(NC(=O)c2ccc(Nc3nc(-c4ccccc4)c4ccccc4n3)cc2)c1
measure.name: cell count
reported.measurement: 127
//
item.smiles: Cc1cccc(Nc2nc(-c3ccncc3)cs2)c1
measure.name: cell count
reported.measurement: 106
//
item.smiles: OCCN1CCN(CC/C=C2/c3ccccc3Sc3ccc(C(F)(F)F)cc32)CC1
measure.name: cell count
reported.measurement: 113

Continue with the compound presented below.
q: Find the recorded cell count belonging to "CCCCN1[C@@H]2CC[C@H]1C[C@@H](OC(c1ccc(F)cc1)c1ccc(F)cc1)C2" and report it.
a: 116

====

# Test system: Vero E6
# protocol.text: drug sensitivity score (DSS) for viability; higher = more toxic; extreme values may be limits of the assay
# measurement.parameters: 72 h
measure.name: drug sensitivity score
Give bare numbers.

molecule: C(#Cc1nc2ncccc2nc1OCCN1CCCC1)c1ccccc1 [GK921]
reported.measurement: 5.3

// for each molecule below, give its drug sensitivity score
1. Cc1nn(C)c2nc(NNC(=O)Nc3cc(Cl)nc(Cl)c3)cc(C(C)C)c12 [JTE-013]
2. CN(C)c1ccc(/C=C2\CCCN=C2c2cccnc2)cc1 [DMAB-anabaseine]
3. CN[C@@H]1[C@@H](O)[C@@H](O[C@@H]2[C@@H](O)[C@H](O[C@H]3O[C@H](CN)[C@@H](O)[C@H](O)[C@H]3O)[C@@H](N)C[C@H]2NC(=O)[C@@H](O)CN)OC[C@]1(C)O [isepamicin]
4. Oc1ccc2ccccc2c1Cc1c(O)ccc2ccccc12 [ST-1859]

a:
[0, 0, 0, 0]

// for each molecule below, give its drug sensitivity score
1. COc1cccc(N(C)C(=S)Oc2ccc3c(c2)CCCC3)n1 [liranaftate]
2. Cc1ccsc1/C=C/C1=NCCCN1C [morantel]
3. C=CC(=O)Nc1cccc(Nc2nc(Nc3ccc(NC4CN(CCF)C4)cc3OC)ncc2C(F)(F)F)c1 [CNX-2006]

a:
1. 0
2. 0
3. 5.9

====

# System: HepG2
# protocol.text: relative viability EC50 (midpoint between 100% and the lowest measured viability); higher = less toxic
# measurement.parameters: 72 h
measure.name: relative viability EC50

compound: CNCCc1ccc(O)c(O)c1 [deoxyepinephrine]
reported.measurement: > 10 µM

// for each compound below, give its relative viability EC50
1. CC(C)c1ccc2c(c1)CC[C@H]1[C@](C)(CN)CCC[C@]21C
2. CCOP(=S)(OCC)Oc1nc(Cl)c(Cl)cc1Cl
3. CN(C)CCNc1nc2cc(O)ccc2c2c1C(=O)c1ccccc1-2
4. Cc1cc(O)c2c(c1)C(=O)c1cccc(O)c1C2=O
5. CNCc1ccc(C)c(NC(=O)c2ccc(Nc3nc(-c4ccccc4)c4ccccc4n3)cc2)c1

a:
1: 3.64 µM; 2: > 10 µM; 3: 0.19 µM; 4: > 10 µM; 5: 1.81 µM

// for each compound below, give its relative viability EC50
1. CCCc1nc(C)c2c(=O)nc(-c3cc(S(=O)(=O)N4CCN(CC)CC4)ccc3OCC)[nH]n12
2. O[C@H]1[C@H](O)[C@@H](O)[C@H](O)[C@@H](O)[C@H]1O
3. O=C(O)/C=C/c1ccc(Cn2ccnc2)cc1

a:
> 10 µM
> 10 µM
> 10 µM

====

# Tested on: Calu-3
# protocol.text: cell viability relative to DMSO; higher = less toxic
# measurement.parameters: 72 h; 1 nM
measure.name: cell viability (%)
Numbers only, in %.

Please review the entries below; each comes with its answer.
compound: Cc1cccc(Nc2ccccc2C(=O)O)c1C
measurement.target: Calu-3
units.text: %
reported.measurement: 89.9
--
compound: CNCCCN1c2ccccc2CCc2ccccc21
measurement.target: Calu-3
units.text: %
reported.measurement: 104
--
compound: NCCCCN(Cc1nc2ccccc2[nH]1)[C@H]1CCCc2cccnc21
measurement.target: Calu-3
units.text: %
reported.measurement: 98.9
--
compound: CCC(COC(=O)c1cc(OC)c(OC)c(OC)c1)(c1ccccc1)N(C)C (centres undefined)
measurement.target: Calu-3
units.text: %
reported.measurement: 97.5
--
compound: Fc1ccccc1-c1nc2ccn(Cc3ccc(-c4ccc(C(F)(F)F)cc4C(F)(F)F)nn3)cc-2n1
measurement.target: Calu-3
units.text: %
reported.measurement: 98.2

// for each compound below, give its cell viability
1. NC(=O)C[S+]([O-])C(c1ccccc1)c1ccccc1 (centres undefined)
2. Nc1ccc(S(=O)(=O)Nc2ccc(Cl)nn2)cc1
3. CC(C)c1nc(CN(C)C(=O)N[C@H](C(=O)N[C@@H](Cc2ccccc2)C[C@H](O)[C@H](Cc2ccccc2)NC(=O)OCc2cncs2)C(C)C)cs1
4. Fc1ccc(C(OCCN2CCN(C/C=C/c3ccccc3)CC2)c2ccc(F)cc2)cc1

a:
[93, 109, 97.4, 97.8]

====

Can you tell me cell viability for the items I'm about to list?
# Test system: Caco-2
# protocol.text: cell viability relative to DMSO; higher = less toxic
# measurement.parameters: 72 h; 100 nM
Give bare numbers, in %.

Please review the entries below; each comes with its answer.
compound: CN(Cc1cc(Br)cc(Br)c1N)C1CCCCC1
measurement.target: Caco-2
cell viability, %: 100
//
compound: CN1[C@@H]2CC[C@H]1C[C@@H](OC1c3ccccc3CCc3ccccc31)C2
measurement.target: Caco-2
cell viability, %: 96.3
//
compound: CCn1c(=O)c2c(nc(/C=C/c3ccc(OC)c(OC)c3)n2C)n(CC)c1=O
measurement.target: Caco-2
cell viability, %: 104

// for each compound below, give its cell viability
1. NC(=O)C[S+]([O-])C(c1ccccc1)c1ccccc1 (centres undefined)
2. O=C1NC(=O)c2cc(Nc3ccc(F)cc3)c(Nc3ccc(F)cc3)cc21
3. NS(=O)(=O)c1cc(C2(O)NC(=O)c3ccccc32)ccc1Cl (centres undefined)
4. Cc1cc(C(=O)Nc2cc(Oc3ccc4nc(NC(=O)C5CC5)cn4n3)ccc2C)n(C)n1
5. CCC(N)C(O)c1ccc(O)c(O)c1 (centres undefined) [ethylnorepinephrine]
6. Cc1nc2ccc(NC(=O)Nc3ccnc4cccnc34)cc2o1

a:
[109, 95.2, 96.8, 93.2, 103, 98]

====

# System: Calu-3
# protocol.text: drug sensitivity score (DSS) for viability; higher = more toxic; extreme values may be limits of the assay
# measurement.parameters: 72 h
Can you tell me drug sensitivity score for the items I'm about to list?
Answers are plain numbers.

Please review the entries below; each comes with its answer.
compound: c1ccc(N2CCN(CCCOc3ccc4c(c3)OCO4)CC2)cc1 [BP-554]
drug sensitivity score: 0
--
compound: Fc1ccc(C(OCCN2CCN(C/C=C/c3ccccc3)CC2)c2ccc(F)cc2)cc1
drug sensitivity score: 0

// for each compound below, give its drug sensitivity score
1. O=C(O)Cn1nnc(-c2cc(N3CCC(Oc4cc(F)ccc4Br)CC3)no2)n1 [MK-8245]
2. O=C(O)CCc1cc(I)c(Oc2ccc(O)cc2)c(I)c1 [diiodothyropropionic-acid]
3. COc1c(C)c2c(c(O)c1C/C=C(\C)CCC(=O)OCCN1CCOCC1)C(=O)OC2 [mycophenolate-mofetil]
4. CN(C)[C@@H]1C(O)=C(C(N)=O)C(=O)[C@@]2(O)C(O)=C3C(=O)c4c(O)ccc(Cl)c4[C@@H](O)[C@H]3C[C@@H]12 [demeclocycline]

a:
[0, 0, 4.2, 0]

// for each compound below, give its drug sensitivity score
1. Cc1[nH]c2ccc(F)cc2c1-c1nc2c3cccnc3c3ncccc3c2[nH]1 [APTO-253]
2. CNCc1ccc(C)c(NC(=O)c2ccc(Nc3nc(-c4ccccc4)c4ccccc4n3)cc2)c1

a:
[13, 6.6]

Data provenance is the supplement of paper PMC13380429.
